Assay: NCI Yeast Anticancer Drug Screen. Data for the mlh1 rad18 strain (AID 175)
Conditions: S. cerevisiae mlh1 rad18 strain growth inhibition; at 50.0 µM; stronger effect = higher value
Protocol: Growth inhibition of yeast strains with defined genetic alterations is measured as a screen for potential anti-cancer activity. Selected strains with alterations in DNA damage repair or cell cycle control were exposed to compounds and growth inhibition was measured relative to vehicle treated controls. The strain used in this assay is mlh1 rad18
This is part of a sample that, as a whole, favours compounds with a hit. Of some 79,000 tested, about 15% had one in any assay.
Answer each item with its documented growth inhibition.
Answers are plain numbers, in %.

Prompt: Fill blank: measured growth inhibition of the compound CCOc1ccccc1N(CCN(C)C)C(=O)C(c1ccccc1)c1ccccc1 is ____.
Response: 31.8

Batch lookup, growth inhibition per entry.
1. O=CC(NC(=O)N(CCF)N=O)C(O)C(O)C(O)CO (stereo not drawn)
2. Oc1ccc(C2=NNC(c3ccc(O)cc3)=NN2)cc1

Response:
1. -44.4
2. 10.1

* * *

experiment: NCI Yeast Anticancer Drug Screen. Data for the rad50 strain (AID 155);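 further: 0% = growth of vehicle-only cultures of the same strain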; details: S. cerevisiae rad50 strain growth inhibition; at 50.0 µM
About 79,000 compounds went through this panel and 15% of them were active in at least one assay; those are over-represented in the sample as a whole. Active and inactive are the calls of the source. No stated cut-off is given here; in the data, active means growth inhibition above about 70%; inactive means the rest.
Permitted responses: active, inactive

Prompt: Given CCNC(=O)C(C(=O)O)c1ccccc1 (centres undefined) , state the outcome it received in this test.
Response: inactive

Prompt: Given C=C1C2C[C@@H]3OC4CC5O[C@]6(CC5OC4C(C)C3OC(=O)CC3CC[C@@H]4OC5C7OC8C[C@](CCC9CC(=C)[C@H](CCC(C[C@H]1C)O2)O9)(OC7C4O3)O[C@@H]85)C[C@@H]1O[C@@]2(CC(C)[C@@H]3OC(CC(=O)CCO)C(O)C[C@@H]3O2)CC(C)[C@@H]1O6 (some centres undefined) , state the outcome it received in this test.
Response: active

Prompt: Given O=C(NC(CO)CO)c1ccc2cc(C(=O)N3CC(CCl)c4ccc([N+](=O)[O-])cc43)[nH]c2c1 (centres undefined) , state the outcome it received in this test.
Response: inactive

Prompt: Given COc1ccc(CSc2nc3ccccc3nc2-c2cccs2)cc1 , state the outcome it received in this test.
Response: inactive

Prompt: Given O=C1/C(=C/c2ccc(Cl)cc2)CCC1CNc1ccc(Cl)cc1 (centres undefined) , state the outcome it received in this test.
Response: inactive

Prompt: Given CCOc1ccc(NC(=O)C2=C(C)NC(C)=C(C(=O)Nc3ccc(OCC)cc3)C2c2ccc(O)c(OC)c2)cc1 , state the outcome it received in this test.
Response: inactive

Prompt: Given CCOC1=CC(=O)CCC1 , state the outcome it received in this test.
Response: inactive

Prompt: Given CC(C=O)C1CCCCC1 (centres undefined) , state the outcome it received in this test.
Response: inactive

Let us examine a further case.
Prompt: Given OCC(CO)(CO)COCC(CO)(CO)CO , state the outcome it received in this test.
Response: inactive

* * *

Answer each item with its documented growth inhibition.
experiment: NCI Yeast Anticancer Drug Screen. Data for the bub3 strain (AID 167); settings: S. cerevisiae bub3 mutant strain, at 50.0 µM, stronger effect = higher value
About 79,000 compounds went through this panel and 15% of them were active in at least one assay; those are over-represented in the sample as a whole.
Give bare numbers, in %.

Check out these entries, answers already filled in.
Prompt: Fill blank: measured growth inhibition of the molecule Clc1ccc(OCC(COc2ccc(Cl)cc2)(COc2ccc(Cl)cc2)COc2ccc(Cl)cc2)cc1 is ____.
Response: -4.45

Prompt: Fill blank: measured growth inhibition of the molecule CSc1ccc(OC(=O)C(C)NC(=O)C(CO)NC(=O)OCc2ccccc2)cc1 (stereo unspecified) is ____.
Response: -1.6

Prompt: Fill blank: measured growth inhibition of the molecule CCN(CC)CCn1cnc(C#N)c1N is ____.
Response: 1.65

Prompt: Fill blank: measured growth inhibition of the molecule O=C(O)CCCCCCCCCCS(=O)(=O)CCO is ____.
Response: 19.9

Prompt: Fill blank: measured growth inhibition of the molecule CNNC(=NS(=O)(=O)c1cc(C#N)c(NNC)cc1S)NNC is ____.
Response: -8.45

Prompt: Fill blank: measured growth inhibition of the molecule COC(=O)c1c(O)cc(OC)cc1OCc1ccccc1 is ____.
Response: 31.4

Prompt: Fill blank: measured growth inhibition of the molecule Cc1ccc(S(=O)(=O)NNC(=O)Nc2cccc(C(F)(F)F)c2)cc1 is ____.
Response: -0.3

Prompt: Fill blank: measured growth inhibition of the molecule CN(C)/C=C/C(=O)c1ccccc1 is ____.
Response: 6.05

Batch lookup, growth inhibition per entry.
1. Cc1c(/C=N/O)nc2ccccc2c1C(=O)O
2. COC(=O)NC(CI)c1ccccc1 (stereo unspecified)
3. CCOC(=O)C(/C=N/Nc1ccc([N+](=O)[O-])cc1[N+](=O)[O-])Oc1cccc(OC)c1 (stereo unspecified)
4. CN1C(C(=O)Nc2ccccn2)=C(O)c2ccccc2S1(=O)=O
5. c1ccc(Cc2[nH]nc(-c3n[nH]c(Cc4ccccc4)c3-c3ccccc3)c2-c2ccccc2)cc1

Response:
-3.85
-6.35
-8.75
-1.75
-20.6

Batch lookup, growth inhibition per entry.
1. Cc1ccc(Cc2nn(C)c(=O)n2N)cc1
2. CCCCCCCCCC[n+]1cccc(C(N)=O)c1
3. COc1ccc(C(=O)N/N=C/c2ccccc2)cc1
4. C[N+](C)(N)CCC[N+](C)(C)N
5. CC(=O)c1cccc(NC(=O)c2cccc(Cl)c2)c1
6. N#Cc1nc(Cc2ccccc2)oc1N
7. COc1ccn(C2OCCC(OC(C)=O)C2O)c(=O)n1 (stereo unspecified)

Response:
[-13.1, -1.05, 2.6, -52.6, 20.4, -26.1, 0.4]

Batch lookup, growth inhibition per entry.
1. C#CC(C)(C)OC(=O)Nc1ccc(Cl)cc1
2. CC(O)CC(C)O (stereo unspecified)
3. Cc1ccc(S(=O)CC(Cl)c2ccccc2)cc1 (stereo unspecified)
4. Cc1cc2oc(=O)[nH]c(=S)c2c(C)c1C
5. O=C(O)CCCCC(=O)c1ccccc1
6. Cc1ccc(NC(=O)Oc2ccc3ccccc3c2)cc1NC(=O)Oc1ccc2ccccc2c1

Response:
1: 7.9; 2: 6.15; 3: 14.3; 4: -59.5; 5: 26.6; 6: 4.9

* * *

experiment: NCI Yeast Anticancer Drug Screen. Data for the mlh1 rad18 strain (AID 175); conditions: S. cerevisiae mlh1 rad18 strain growth inhibition; at 50.0 µM; stronger effect = higher value
Compounds without any hit were thinned out: in the full panel of roughly 79,000, 15% have a hit.
Property: growth inhibition (%)
Give bare numbers, in %.

Prompt: Fill blank: measured growth inhibition of the compound NC(=O)NC(=O)C1C2CC3OC(=O)C1C3C2 (stereo not drawn) is ____.
Response: 20.9

Prompt: Fill blank: measured growth inhibition of the compound CN(NC(=O)/C(=C\c1ccccc1Cl)NC(=O)c1ccccc1)c1cn[nH]c(=O)c1Cl is ____.
Response: -6.85

Prompt: Fill blank: measured growth inhibition of the compound c1ccc(CNc2cnccn2)cc1 is ____.
Response: -4.95

Batch lookup, growth inhibition per entry.
1. CC(=O)/C(=C\c1ccccc1F)C(=O)CCN(C)C
2. O=C1CC2C(=O)N(Cc3ccccc3)C1C=C2S(=O)(=O)c1ccccc1 (stereo not drawn)
3. COc1ccc(NC(=O)Oc2cccc(NC(C)=O)c2)c(OC)c1
4. CCOC(=O)c1nc(SC)sc1NC(=O)c1ccc(OC)cc1
5. COc1ccc2c(c1)OC(OC)(c1ccc(OC)c(OC)c1)C(O)(OC)C2=O (stereo not drawn)

Response:
1. 28.3
2. 4.9
3. 8.65
4. -4.65
5. 29

Batch lookup, growth inhibition per entry.
1. COC(=O)/C=C(\S/C=C(/c1ccccc1)N1CCn2c(C(=O)c3ccccc3)c(C(=O)OC)c(C(=O)OC)c21)C(=O)OC
2. CN(C)c1ccc(NC2COc3ccccc3C2=O)cc1 (stereo not drawn)
3. O=S(=O)(O)c1cc(O)ccc1O.O=S(=O)(O)c1cc(O)ccc1O.[NH-]C1CCCCC1[NH-].[Pt+2]
4. O=[N+]([O-])c1c(O)c2nonc2c2nn(-c3ccccc3)nc12
5. C=CCC1=C(C)C(O)CC1=O (stereo not drawn)

Response:
[15.2, -6.6, -3.25, -15.4, -41.6]

Batch lookup, growth inhibition per entry.
1. CSc1cc(Cl)c(C)cc1S(=O)(=O)n1cc[nH]c1=O
2. Cc1cccc(C)c1C1=NCCN1
3. O=[N+]([O-])c1ccc2nc(C(F)(F)F)cc(Cl)c2c1
4. CCOC(=O)Nc1cc(Nc2ccc(Cl)cc2)c2nc(-c3ccc(Cl)cc3)c(-c3ccc(Cl)cc3)nc2n1

Response:
1. 17.1
2. 1.65
3. -9.75
4. 8.8

Batch lookup, growth inhibition per entry.
1. CCN(CC)C(=O)NCCCCCCNC(=O)N(CC)CC
2. CN(C)CCCN=C(N)N
3. CCCCCC(=C/c1ccccc1)/C=N/N1CCN(/N=C/C(=C/c2ccccc2)CCCCC)CC1
4. Cc1cccc(C)c1NC(=O)CCC/C(CC(=O)c1ccc(F)cc1)=N\NC(=O)C(=O)NN
5. O=C(N/N=C\c1ccc(Cl)cc1)c1ccccc1
6. CC(=O)OCC(OC(C)=O)C1(O)CCC2C3CCC4=CC(=O)CCC4(C)C3CCC21C (stereo not drawn)

Response:
1. -23.6
2. -4.1
3. 11.2
4. 19.8
5. -4.55
6. 98.3
